Catalogue of compounds with associated melting point

{"columns": ["COMPOUND", "melting point"],
 "data": [
  ["O=C(CCCc1ccc2ccc3cccc4ccc1c2c34)N1CCNCCNCCNCC1", "83 to 86 °C"],
  ["c1ccc(CN(Cc2ccccn2)Cc2ccc3ccc4cccc5ccc2c3c45)nc1 [compound 14]", "108 to 112 °C"],
  ["O=C(Cc1ccc2ccc3cccc4ccc1c2c34)N1CCNCCNCCNCC1", "75 to 79 °C"],
  ["c1cc2ccc3ccc(CCCCOCc4cc(CN5CCNCCNCCNCC5)cc(CN5CCNCCNCCNCC5)c4)c4ccc(c1)c2c34", "55 to 60 °C"],
  ["c1ccc(CN(CCCCc2ccc3ccc4cccc5ccc2c3c45)Cc2ccccn2)nc1 [compound 15]", "61 to 62 °C"]
]}

Origin of the recorded values: patent US10889554B2
